We begin with a simple list: items and their reported MIC.
System: Escherichia coli
experiment.notes: Antibacterial activity against Escherichia coli TG1 pET28a plasmid encoded for APH(3')-3a after 12 to 18 hrs
Format: functional
Express your answer as a number followed by its unit.

| compound | MIC |
| --- | --- |
| NC[C@@H]1O[C@H](O[C@H]2[C@@H](O)[C@H](O[C@@H]3[C@@H](O)[C@H](N)C[C@H](N)[C@H]3O[C@H]3O[C@H](CN)[C@@H](O)[C@H](O)[C@H]3N)O[C@@H]2Cn2cc(C3CCCCN3)nn2)[C@H](N)[C@@H](O)[C@@H]1O (some centres not stated) | 125 µg/mL |

Tested system Escherichia coli; MIC recorded for CCCCCCC(=O)NC[C@H]1O[C@@H](O[C@@H]2[C@@H](O)[C@H](N)C[C@H](N)[C@H]2O[C@H]2O[C@H](CN)[C@@H](O)[C@H](O)[C@H]2N)[C@H](O)[C@@H]1O[C@H]1O[C@@H](CN)[C@@H](O)[C@H](O)[C@H]1N was 64 µg/mL

====

Tested on: Escherichia coli
experiment.notes: Antibacterial activity against aminoglycoside-susceptible Escherichia coli ATCC 25922 after 12 to 18 hrs
Format: functional
assay.metric: MIC (µg/mL)
Report only the number, with the unit µg/mL understood.

Input NC[C@@H]1O[C@H](O[C@H]2[C@@H](O)[C@H](O[C@@H]3[C@@H](O)[C@H](N)C[C@H](N)[C@H]3O[C@H]3O[C@H](CN)[C@@H](O)[C@H](O)[C@H]3N)O[C@@H]2CNC(=O)[C@H]2CCCN2)[C@H](N)[C@@H](O)[C@@H]1O . Output MIC: 8

Input NCC(=O)NC[C@H]1O[C@@H](O[C@@H]2[C@@H](O)[C@H](N)C[C@H](N)[C@H]2O[C@H]2O[C@H](CN)[C@@H](O)[C@H](O)[C@H]2N)[C@H](O)[C@@H]1O[C@H]1O[C@@H](CN)[C@@H](O)[C@H](O)[C@H]1N . Output MIC: 16

Input NC[C@@H]1O[C@H](O[C@H]2[C@@H](O)[C@H](O[C@@H]3[C@@H](O)[C@H](N)C[C@H](N)[C@H]3O[C@H]3O[C@H](CN)[C@@H](O)[C@H](O)[C@H]3N)O[C@@H]2CNC(=O)[C@H](N)CO)[C@H](N)[C@@H](O)[C@@H]1O . Output MIC: 8

Input NC[C@@H]1O[C@H](O[C@H]2[C@@H](O)[C@H](O[C@@H]3[C@@H](O)[C@H](N)C[C@H](N)[C@H]3O[C@H]3O[C@H](CN)[C@@H](O)[C@H](O)[C@H]3N)O[C@@H]2CNC(=O)CCC(=O)NC[C@H]2O[C@@H](O[C@@H]3[C@@H](O)[C@H](N)C[C@H](N)[C@H]3O[C@H]3O[C@H](CN)[C@@H](O)[C@H](O)[C@H]3N)[C@H](O)[C@@H]2O[C@H]2O[C@@H](CN)[C@@H](O)[C@H](O)[C@H]2N)[C@H](N)[C@@H](O)[C@@H]1O . Output MIC: 32

Input NCc1cn(C[C@H]2O[C@@H](O[C@@H]3[C@@H](O)[C@H](N)C[C@H](N)[C@H]3O[C@H]3O[C@H](CN)[C@@H](O)[C@H](O)[C@H]3N)[C@H](O)[C@@H]2O[C@H]2O[C@@H](CN)[C@@H](O)[C@H](O)[C@H]2N)nn1 . Output MIC: 8

Input CC(=O)NCC1CN(Cc2cn(C[C@H]3O[C@@H](O[C@@H]4[C@@H](O)[C@H](N)C[C@H](N)[C@H]4O[C@H]4O[C@H](CN)[C@@H](O)[C@H](O)[C@H]4N)[C@H](O)[C@@H]3O[C@H]3O[C@@H](CN)[C@@H](O)[C@H](O)[C@H]3N)nn2)C(=O)O1 (some centres undefined) . Output MIC: 32

Input CN(C)Cc1cn(C[C@H]2O[C@@H](O[C@@H]3[C@@H](O)[C@H](N)C[C@H](N)[C@H]3O[C@H]3O[C@H](CN)[C@@H](O)[C@H](O)[C@H]3N)[C@H](O)[C@@H]2O[C@H]2O[C@@H](CN)[C@@H](O)[C@H](O)[C@H]2N)nn1 . Output MIC: 8

Input NCCCC[C@@H](N)C(=O)NC[C@H]1O[C@@H](O[C@@H]2[C@@H](O)[C@H](N)C[C@H](N)[C@H]2O[C@H]2O[C@H](CN)[C@@H](O)[C@H](O)[C@H]2N)[C@H](O)[C@@H]1O[C@H]1O[C@@H](CN)[C@@H](O)[C@H](O)[C@H]1N . Output MIC: 32

Input CCCCCCCCCCCCCCCCCC(=O)NC[C@H]1O[C@@H](O[C@@H]2[C@@H](O)[C@H](N)C[C@H](N)[C@H]2O[C@H]2O[C@H](CN)[C@@H](O)[C@H](O)[C@H]2N)[C@H](O)[C@@H]1O[C@H]1O[C@@H](CN)[C@@H](O)[C@H](O)[C@H]1N . Output MIC: 4

Input C[C@H](N)C(=O)NC[C@H]1O[C@@H](O[C@@H]2[C@@H](O)[C@H](N)C[C@H](N)[C@H]2O[C@H]2O[C@H](CN)[C@@H](O)[C@H](O)[C@H]2N)[C@H](O)[C@@H]1O[C@H]1O[C@@H](CN)[C@@H](O)[C@H](O)[C@H]1N . Output MIC: 8

Input CCCCCCCCCCCCCCCC(=O)NC[C@H]1O[C@@H](O[C@@H]2[C@@H](O)[C@H](N)C[C@H](N)[C@H]2O[C@H]2O[C@H](CN)[C@@H](O)[C@H](O)[C@H]2N)[C@H](O)[C@@H]1O[C@H]1O[C@@H](CN)[C@@H](O)[C@H](O)[C@H]1N . Output MIC: 4

Input NC[C@@H]1O[C@H](O[C@H]2[C@@H](O)[C@H](O[C@@H]3[C@@H](O)[C@H](N)C[C@H](N)[C@H]3O[C@H]3O[C@H](CN)[C@@H](O)[C@H](O)[C@H]3N)O[C@@H]2CNC(=O)[C@@H]2CCCN2)[C@H](N)[C@@H](O)[C@@H]1O . Output MIC: 16

Input NC[C@@H]1O[C@H](O[C@H]2[C@@H](O)[C@H](O[C@@H]3[C@@H](O)[C@H](N)C[C@H](N)[C@H]3O[C@H]3O[C@H](CN)[C@@H](O)[C@H](O)[C@H]3N)O[C@@H]2Cn2cc(C3CCCCN3)nn2)[C@H](N)[C@@H](O)[C@@H]1O (some centres undefined) . Output MIC: 8

Input C[C@@H](N)C(=O)NC[C@H]1O[C@@H](O[C@@H]2[C@@H](O)[C@H](N)C[C@H](N)[C@H]2O[C@H]2O[C@H](CN)[C@@H](O)[C@H](O)[C@H]2N)[C@H](O)[C@@H]1O[C@H]1O[C@@H](CN)[C@@H](O)[C@H](O)[C@H]1N . Output MIC: 16

====

Test system: Escherichia coli
experiment.notes: Antibacterial activity against aminoglycoside-susceptible Escherichia coli TG1 after 12 to 18 hrs
Type: functional
We begin with a simple list: items and their reported MIC.
Report only the number, with the unit µg/mL understood.

Consider the following illustrative entries.
| compound | observed.value |
| --- | --- |
| NC[C@@H]1O[C@H](O[C@H]2[C@@H](O)[C@H](O[C@@H]3[C@@H](O)[C@H](N)C[C@H](N)[C@H]3O[C@H]3O[C@H](CN)[C@@H](O)[C@H](O)[C@H]3N)O[C@@H]2Cn2cc(C3CCCCN3)nn2)[C@H](N)[C@@H](O)[C@@H]1O (stereo partly specified) | 16 |
| CN(C)Cc1cn(C[C@H]2O[C@@H](O[C@@H]3[C@@H](O)[C@H](N)C[C@H](N)[C@H]3O[C@H]3O[C@H](CN)[C@@H](O)[C@H](O)[C@H]3N)[C@H](O)[C@@H]2O[C@H]2O[C@@H](CN)[C@@H](O)[C@H](O)[C@H]2N)nn1 | 8 |
| NC[C@@H]1O[C@H](O[C@H]2[C@@H](O)[C@H](O[C@@H]3[C@@H](O)[C@H](N)C[C@H](N)[C@H]3O[C@H]3O[C@H](CN)[C@@H](O)[C@H](O)[C@H]3N)O[C@@H]2CNC(=O)[C@H](N)CO)[C@H](N)[C@@H](O)[C@@H]1O | 8 |
| CNCc1cn(C[C@H]2O[C@@H](O[C@@H]3[C@@H](O)[C@H](N)C[C@H](N)[C@H]3O[C@H]3O[C@H](CN)[C@@H](O)[C@H](O)[C@H]3N)[C@H](O)[C@@H]2O[C@H]2O[C@@H](CN)[C@@H](O)[C@H](O)[C@H]2N)nn1 | 16 |
| C[C@H](N)C(=O)NC[C@H]1O[C@@H](O[C@@H]2[C@@H](O)[C@H](N)C[C@H](N)[C@H]2O[C@H]2O[C@H](CN)[C@@H](O)[C@H](O)[C@H]2N)[C@H](O)[C@@H]1O[C@H]1O[C@@H](CN)[C@@H](O)[C@H](O)[C@H]1N | 8 |
| NCCCC[C@H](N)C(=O)NC[C@H]1O[C@@H](O[C@@H]2[C@@H](O)[C@H](N)C[C@H](N)[C@H]2O[C@H]2O[C@H](CN)[C@@H](O)[C@H](O)[C@H]2N)[C@H](O)[C@@H]1O[C@H]1O[C@@H](CN)[C@@H](O)[C@H](O)[C@H]1N | 16 |
| NCc1cn(C[C@H]2O[C@@H](O[C@@H]3[C@@H](O)[C@H](N)C[C@H](N)[C@H]3O[C@H]3O[C@H](CN)[C@@H](O)[C@H](O)[C@H]3N)[C@H](O)[C@@H]2O[C@H]2O[C@@H](CN)[C@@H](O)[C@H](O)[C@H]2N)nn1 | 16 |
| NC[C@@H]1O[C@H](O[C@H]2[C@@H](O)[C@H](O[C@@H]3[C@@H](O)[C@H](N)C[C@H](N)[C@H]3O[C@H]3O[C@H](CN)[C@@H](O)[C@H](O)[C@H]3N)O[C@@H]2CO)[C@H](N)[C@@H](O)[C@@H]1O | 4 |
| CCCCCCCCCCCCCCCCCC(=O)NC[C@H]1O[C@@H](O[C@@H]2[C@@H](O)[C@H](N)C[C@H](N)[C@H]2O[C@H]2O[C@H](CN)[C@@H](O)[C@H](O)[C@H]2N)[C@H](O)[C@@H]1O[C@H]1O[C@@H](CN)[C@@H](O)[C@H](O)[C@H]1N | 2 |
| CC(=O)NCC1CN(Cc2cn(C[C@H]3O[C@@H](O[C@@H]4[C@@H](O)[C@H](N)C[C@H](N)[C@H]4O[C@H]4O[C@H](CN)[C@@H](O)[C@H](O)[C@H]4N)[C@H](O)[C@@H]3O[C@H]3O[C@@H](CN)[C@@H](O)[C@H](O)[C@H]3N)nn2)C(=O)O1 (stereo partly specified) | 16 |

Input NC[C@@H]1O[C@H](O[C@H]2[C@@H](O)[C@H](O[C@@H]3[C@@H](O)[C@H](N)C[C@H](N)[C@H]3O[C@H]3O[C@H](CN)[C@@H](O)[C@H](O)[C@H]3N)O[C@@H]2CNC(=O)CCC(=O)NC[C@H]2O[C@@H](O[C@@H]3[C@@H](O)[C@H](N)C[C@H](N)[C@H]3O[C@H]3O[C@H](CN)[C@@H](O)[C@H](O)[C@H]3N)[C@H](O)[C@@H]2O[C@H]2O[C@@H](CN)[C@@H](O)[C@H](O)[C@H]2N)[C@H](N)[C@@H](O)[C@@H]1O . Output MIC: 8

Input NC[C@@H]1O[C@H](O[C@H]2[C@@H](O)[C@H](O[C@@H]3[C@@H](O)[C@H](N)C[C@H](N)[C@H]3O[C@H]3O[C@H](CN)[C@@H](O)[C@H](O)[C@H]3N)O[C@@H]2CNC(=O)[C@H]2CCCN2)[C@H](N)[C@@H](O)[C@@H]1O . Output MIC: 8

Input NC[C@@H]1O[C@H](O[C@H]2[C@@H](O)[C@H](O[C@@H]3[C@@H](O)[C@H](N)C[C@H](N)[C@H]3O[C@H]3O[C@H](CN)[C@@H](O)[C@H](O)[C@H]3N)O[C@@H]2Cn2cc(CNC(=O)[C@@H]3CCCN3)nn2)[C@H](N)[C@@H](O)[C@@H]1O . Output MIC: 16

Input NCC(=O)NCC(=O)NC[C@H]1O[C@@H](O[C@@H]2[C@@H](O)[C@H](N)C[C@H](N)[C@H]2O[C@H]2O[C@H](CN)[C@@H](O)[C@H](O)[C@H]2N)[C@H](O)[C@@H]1O[C@H]1O[C@@H](CN)[C@@H](O)[C@H](O)[C@H]1N . Output MIC: 16

Input NC[C@@H]1O[C@H](O[C@H]2[C@@H](O)[C@H](O[C@@H]3[C@@H](O)[C@H](N)C[C@H](N)[C@H]3O[C@H]3O[C@H](CN)[C@@H](O)[C@H](O)[C@H]3N)O[C@@H]2CNC(=O)CCC(=O)O)[C@H](N)[C@@H](O)[C@@H]1O . Output MIC: 32

Input NC[C@@H]1O[C@H](O[C@H]2[C@@H](O)[C@H](O[C@@H]3[C@@H](O)[C@H](N)C[C@H](N)[C@H]3O[C@H]3O[C@H](CN)[C@@H](O)[C@H](O)[C@H]3N)O[C@@H]2CNC(=O)c2cc(-c3ccccc3)nc3ccccc23)[C@H](N)[C@@H](O)[C@@H]1O . Output MIC: 8
